Test: yeast display, Sf9 membrane polyspecificity reagent, FACS + sequencing; frameworks hold sequencing errors
quantity: polyreactivity (PSR sort gate)

Reference set (6 entries):
- primary.sequence: "QVQLVESGGGLVQAGGSLRLSCAASGSTFAHKAMGWYRQAPGKEGEFVAGISTNGGSTYYADSVKGRFTISRDNAKNTVYLQMNSLKPEDTAVYYCAAVNYYDQYGDYYWGQGTQVTVSS"
  polyreactivity (PSR sort gate): "low polyreactivity"
- primary.sequence: "QVQLVESGGGLVQAGGSLRLSCAASGGTFSPYAMGWYRQAPGKERELVAAIRYSGDRTYYADSVKGRFTISRDNAKNTVYLQMNSLKPEDTAVYYCAGPYYNTGYRYGYWGQGTQVTVSS"
  polyreactivity (PSR sort gate): "high polyreactivity"
- primary.sequence: "QVQLVESGGGLVQAGGSLRLSCAASGNTFVLYAMGWYRQAPGKERELVAAINNGGSTYADSVKGRFTISRDNAKNTVYLQMNSLKPEDTAVYYCAARYQVGVYWRRYYWGQGTQVTVSS"
  polyreactivity (PSR sort gate): "high polyreactivity"
- primary.sequence: "QVQLVESGGGLVQAGGSLRLSCAASGRIISYYAMGWYRQAPGKERELVAAISRSGGSTYYADSVKGRFTISRDNAKNTVYLQMNSLKPEDTAVYYCAKYFRPVQGDKWGFKYWGQGTQVTVSS"
  polyreactivity (PSR sort gate): "high polyreactivity"
- primary.sequence: "LVHLQESGGGMVQAGGSLRLSGAAIGYISWADYMGWYRQAPGKERELVAGIGYGSTTYYADSVKGRFTISRDNAKNTAYLQMNSLKPEDTGVYYCAVGLDRDTAYKYWGQGTQVTVSS"
  polyreactivity (PSR sort gate): "low polyreactivity"
- primary.sequence: "QVQIVESGGGLVQAGGSLRLSCAASGSTFDYYAMGWYRQAPGKERELVAGISASGGSTYYADSVKGRFTISRDNAKNTVYLQMNRMKPEDTAVYYCASYYKPPGYDYWGQGTQVTVSS"
  polyreactivity (PSR sort gate): "low polyreactivity"

Here's the next entry for you.
Q: Tell me the measured polyreactivity (PSR sort gate) of QVQLVESGGGLVQAGGSLRLSCAASGFTFLRYAMGWYRQAPGKERELVAAITGSGGSTYYADSVKGRFTISRDNAQNTVYLQMNSLKPEDTAVYYCSIVSKFTGDYGYWGQGTQVTVSS , please.
A: high polyreactivity
